These measurements were taken from patent US6716960B2.

# MEASUREMENT_TARGET: CPP32 (Homo sapiens)
# Construct: CPP32 is cleaved at Asp28 and Asp175 to generate two polypeptides of molecular masses of 17 kDa (p17) and 12 kDa (p12); GST (N, cleaved yes); bacterial lysates
# Sequence (P42574 29-175 limits assumed): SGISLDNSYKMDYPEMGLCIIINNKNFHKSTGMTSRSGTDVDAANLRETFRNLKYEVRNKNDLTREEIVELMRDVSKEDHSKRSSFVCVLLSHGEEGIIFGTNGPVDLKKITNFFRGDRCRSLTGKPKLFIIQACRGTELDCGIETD
# Sequence (P42574 176-277 limits assumed): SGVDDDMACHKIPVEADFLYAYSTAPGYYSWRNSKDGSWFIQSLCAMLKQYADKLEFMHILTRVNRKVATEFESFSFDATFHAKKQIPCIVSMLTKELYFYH
# ASSAY_TEXT: Continuous fluorometric assay of recombinant CPP32 with DEVD-AMC substrate
pKi: −log10 of the molar value.
MEASURED_PROPERTY: pKi

SMILES_RECORD: CC(=O)N[C@@H](Cc1ccc(O)cc1)C(=O)N[C@H](C(=O)N[C@@H](C)C(=O)N[C@H](C=O)CC(=O)O)C(C)C
VALUE_OBSERVED: 5.07
